System: RXF 393 renal
Assay: NCI-60 one-dose screen, 48 h
Settings: 10 µM unless noted
Compounds without any hit were thinned out: in the full panel of roughly 83,000, 20% have a hit. Active and inactive are the calls of the source. The calls were made as follows: active = growth percent below 10; inactive = the rest.
Labels: Yes (active), No (inactive)

compound=CCCOc1ccc(/C=N/Nc2cc(C)nc3ccc(Cl)cc23)cc1 discrete_label=Yes
compound=COc1cc2c3c(c4c5ccccc5[nH]c4c2c(OC)c1OC)C(=O)N(CCN1CCOCC1)C3=O discrete_label=No
compound=Cc1cc2c(c(C)c1Cl)C(=O)/C(=C/c1ccc(O)c(O)c1)O2 discrete_label=No
compound=Cc1cc2nc3c4ccc(Br)cc4n(CCN(C)C)c3nc2cc1C discrete_label=No
compound=COc1ccc(-c2cnc3c(-c4cccc5cnccc45)cnn3c2)cc1 discrete_label=No
compound=Cc1cc(C)c(S(=O)(=O)Oc2ccccc2[N+](=O)[O-])c(C)c1 discrete_label=Yes
compound=CCCCCCNC(=O)Oc1ccc(/C(=C(\C)c2ccccc2)c2ccc(OCCN3CCCCC3)cc2)cc1 discrete_label=No
compound=COc1ccc(/C=C2\COc3ccc(-c4ccccc4)cc3C2=O)c(OC)c1 discrete_label=No
compound="CCCCCCCC(=O)OCC/C=C/C1OC1C1OC(=O)/C=C\\C=C\\C(=O)N(C(C)=O)C(=O)/C=C(/C)CCC2OC2C1OC(=O)NC(C)=O (centres undefined)" discrete_label=No

----------
Test system: HCT-116 colon
Assay: NCI-60 one-dose screen, 48 h
Settings: 10 µM unless noted
Compounds without any hit were thinned out: in the full panel of roughly 83,000, 20% have a hit. Calls of active or inactive are those of the source. The calls were made as follows: active = growth percent below 10; inactive = the rest.
Outcome codes: active, inactive

compound=Cc1cccc(NC(=O)Nc2ccc(-n3cnc4cc(-c5ccc(O)cc5)ccc43)cc2)c1 discrete_label=inactive
compound=CCCCC[n+]1ccc(SCC(=O)N(C)c2ccc(Oc3ccccc3)cc2)c2ccccc21 discrete_label=inactive
compound=O=C(CCN1CCCC1)Nc1ccc2c(Nc3ccc(F)cc3)c3ccccc3nc2c1 discrete_label=active
compound="N#CC1C(C#N)C2c3ccccc3C=CN2C1C(=O)c1ccc(Br)cc1 (centres undefined)" discrete_label=inactive
compound=N#Cc1c(NCc2ccccc2I)sc2c1CCCCC2 discrete_label=inactive
compound=COc1cc(-c2n/c(=C\c3c(O)[nH]c4ccc(Cl)cc34)cc3c2=Nc2ccccc2-3)ccc1F discrete_label=active
compound=CCN(c1ccccc1)S(=O)(=O)c1cc([N+](=O)[O-])ccc1Cl discrete_label=inactive
compound="COc1cc(NC(C)CCCNC(=O)CCC(=O)NCCCNCCCCCCCCCCNCCCNC(=O)CCC(=O)NCCCC(C)Nc2cc(OC)cc3cccnc23)c2ncccc2c1 (centres undefined)" discrete_label=inactive
compound=CCc1c(Cl)nc(N)nc1Nc1ccc(C)c(C)c1 discrete_label=inactive
compound=C#CCNC(=O)[C@]1(C)CC[C@]2(C)CC[C@@H]3C(=CC[C@H]4[C@@]3(C)CC[C@H]3C(C)(C)C(=O)CC[C@]43C)[C@@H]2C1 discrete_label=inactive
compound=CC(=O)[C@@H]1CC[C@]2(C(N)=O)CC[C@]3(C)[C@H](CC[C@@H]4[C@@]5(C)CCCNC(C)(C)[C@@H]5CC[C@]43C)[C@@H]12 discrete_label=inactive
compound=COc1cc2oc(-c3cccc(C(=O)Nc4ccc(Br)cc4)c3)cc(=O)c2c(OC)c1OC discrete_label=inactive
compound=C/C(=N\Nc1cc(C)nc2ccc(Br)cc12)c1ccc([N+](=O)[O-])cc1 discrete_label=inactive
compound=Cc1ccc(NC(=O)c2cc(-c3nc4ccccc4s3)c(=O)n(NS(=O)(=O)c3ccc(Cl)cc3)c2N)cc1 discrete_label=inactive
compound=COc1cc(/C=C\c2cc(OC)c(OC)c(OC)c2)cc(N)c1OC discrete_label=inactive
compound=CCCCCN1C=C/C(=C\C(=O)N2CCCc3ccccc32)c2ccccc21 discrete_label=inactive
compound=NS(=O)(=O)c1ccc(Cn2c(SCC(=O)N/N=C/c3ccccc3O)nc3ccccc3c2=O)cc1 discrete_label=inactive
compound=O=C(Cc1ccc(/C=C/C(=O)c2nccs2)cc1)Nc1ccccc1 discrete_label=active
compound=CC(=O)c1ccc(NS(=O)(=O)c2cccc(C(=O)Nc3ccc(Br)cc3)c2)cc1 discrete_label=inactive

These data points were gathered from PubChem BioAssay (NCI).
